Reported Inhibition by item:
System: Staphylococcus aureus
Conditions: Concentration 32 ug.mL-1;; ASSAY_TEST Inhibition of Bacterial Growth; detection method Absorption (OD600); MEDIA CAMHB; plate type 384well; NBS; CORNING #3640; time 18 hr
Description: Antibacterial activity against Staphylococcus aureus MRSA ATCC 43300 (CO-ADD:GP_020); MIC in CAMBH media, using NBS plates, by OD(600)
Potency and affinity values are given separately.
Respond numerically; units are % and should not be typed.

Recorded Inhibition, per entry:
O=c1c2sccc2n2c(=O)n(Cc3c(F)cccc3Cl)nc2n1CCc1ccccc1 : 3.01
COc1ccccc1CNC(=O)Cn1nc2c(SCc3ccc(Cl)cc3)nccn2c1=O : 6.37
Cc1ccc(-c2cc3c4nn(CC(=O)Nc5ccc6c(c5)OCO6)c(=O)n4ccn3n2)cc1 : 12.49

Exercise: Give reported Inhibition value for "CCOc1ccc(-n2ccn3c(SCC(=O)Nc4cccc(CC)c4)nnc3c2=O)cc1"
Key: -2.86

Exercise: Give the value of Inhibition reported for the following: "CN(C(=O)Cn1nc2n(Cc3ccco3)c(=O)c3sccc3n2c1=O)c1ccccc1"
Key: 0.44

Exercise: Tell us which Inhibition value is on record for "COc1cc(NC(=O)CSc2nnc3c(=O)n(-c4cccc(OC)c4)ccn23)cc(OC)c1"
Key: 2.57

====

This section presents compounds with their documented Inhibition values.
Tested on: Escherichia coli
Details: Concentration 32 ug.mL-1;; ASSAY_TEST Inhibition of Bacterial Growth; detection method Absorption (OD600); MEDIA CAMHB; plate type 384well; NBS; CORNING #3640; time 18 hr
Description: Antibacterial activity against Escherichia coli ATCC 25922 (CO-ADD:GN_001); MIC in CAMBH media using NBS plates, by OD(600)
Measured potencies and affinities stand elsewhere.
Number first, unit second.

Below: 8 compounds and their reported Inhibition.
Cc1ccc(-c2cc3c4nn(CC(=O)Nc5ccc(F)cc5Cl)c(=O)n4ccn3n2)cc1 : -5.61%
O=c1c2nn(Cc3ccc(F)cc3)c(=O)n2ccn1-c1ccccc1 : -4.05%
O=C(CSc1nnc2c(=O)n(-c3ccc(Br)cc3)ccn12)Nc1cc(F)ccc1F : -2.54%
Cc1ccc(Oc2nc3ccccc3n3c(=O)n(CC(=O)Nc4cccc(C(F)(F)F)c4)nc23)cc1 : -3.3%
Cc1ccc(NC(=O)CSc2nc3ccccc3n3c(C)nnc23)c(Br)c1 : -2.51%
CCCCn1c(=O)c2sccc2n2c(=O)n(CC(=O)N(C)c3ccccc3)nc12 : -12.98%
CC(C)CCNC(=O)CSc1nnc2c(=O)n(Cc3ccc(F)cc3)ccn12 : -0.48%
Cc1ccc2c(c1)N(C(=O)Cn1nc3ccc(S(=O)(=O)C(C)(C)C)nn3c1=O)CCO2 : 3.75%

Exercise: Let me know recorded Inhibition for "Cc1ccc(Sc2nccn3c(=O)n(CC(=O)N4CCN(c5ccccc5)CC4)nc23)c(C)c1" , thanks.
Key: -12.78%

Exercise: Give me measured Inhibition, please, for this compound: "COc1ccc(NC(=O)Cn2nc3c4cc(-c5cc(C)ccc5C)nn4ccn3c2=O)c(OC)c1"
Key: 3.2%

Exercise: Return the recorded Inhibition value; entry: "COc1cccc(CNC(=O)CSc2nnc3c(=O)n(-c4ccc(F)cc4)ccn23)c1OC"
Key: 2.01%

Exercise: For the compound "Cc1cc(C)cc(N(Cc2ccccc2)S(=O)(=O)c2cccn3c(C)nnc23)c1" , report Inhibition.
Key: -7.5%

Exercise: Give a short answer stating reported Inhibition for "CC(C)(C)OC(=O)N1CCC(NC(=O)CCc2nnc3ccc(-c4ccccc4)nn23)CC1" .
Key: -5.19%

Exercise: Dear colleague, please send me the reported Inhibition for "O=C(CSc1nnc2c3cc(-c4ccc(F)cc4)nn3ccn12)NCc1ccc(Cl)cc1" when you can.
Key: -11.03%

Exercise: Assign Inhibition to the following record: CCCn1c(=O)c2sccc2n2c(CCC(=O)NC(C)C34CC5CC(CC(C5)C3)C4)nnc12 (stereo not given)
Key: -7.36%

Exercise: Answer with the recorded Inhibition of Cc1ccc(C)c(NC(=O)Cn2nc3c(N4CCCC(C)C4)nccn3c2=O)c1 (stereo not given) only.
Key: -6.19%

Exercise: Return value of Inhibition for input "COc1ccc(-c2cc3c4nnc(SCC(=O)NCc5ccccc5Cl)n4ccn3n2)cc1" , no commentary.
Key: -7.58%

Exercise: Give the reported Inhibition for this compound. "Cc1ccc(N(CC(=O)OC(C)(C)C)S(=O)(=O)c2cccn3cnnc23)cc1"
Key: -3.99%

Exercise: Supply reported Inhibition belonging to this compound: "CCOc1ccccc1NC(=O)Cn1nc2c(Sc3ccccc3)nccn2c1=O"
Key: -5.85%

Exercise: Given the compound "COC(=O)c1ccc(CN(c2ccc(Cl)cc2)S(=O)(=O)c2ccc3nncn3c2)o1" , write its reported Inhibition.
Key: -7.28%
